Biological target: Human P2X4 receptor (P2X4R) (Homo sapiens)
Construct: expressed in transfected cells; host or cells: HEK-293
Sequence (Q99571 whole entry): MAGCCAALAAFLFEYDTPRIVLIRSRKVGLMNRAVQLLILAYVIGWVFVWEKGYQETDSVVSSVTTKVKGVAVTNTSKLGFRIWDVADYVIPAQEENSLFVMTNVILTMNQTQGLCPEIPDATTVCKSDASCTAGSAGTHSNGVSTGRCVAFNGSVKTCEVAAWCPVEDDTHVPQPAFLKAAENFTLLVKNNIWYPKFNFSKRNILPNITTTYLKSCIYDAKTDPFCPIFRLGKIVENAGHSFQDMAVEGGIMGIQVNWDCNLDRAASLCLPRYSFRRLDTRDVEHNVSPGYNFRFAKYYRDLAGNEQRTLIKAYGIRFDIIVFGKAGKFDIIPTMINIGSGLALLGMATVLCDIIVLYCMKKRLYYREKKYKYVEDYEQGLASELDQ
Experiment: Receptor-mediated calcium entrance assay (Calcium Assay), P2X4R transfected HEK-293 cells
Type: cell-based
Conditions: HEK293, compound at 5 μM, 1 mM ATP stimulus, read-out: Percentage of activity remains in the presence of the compound at 5 μM, P2X4R (Calcium Assay)
recorded.metric: remaining activity at 5 µM

- compound: "O=C(CCc1ccccc1)NC1CCCN(S(=O)(=O)c2ccc(N3CCC(Oc4ccccc4)CC3)cc2)C1 (stereo not shown)"
  target.under.test: "Human P2X4 receptor (P2X4R) (Homo sapiens)"
  value.observed: "71.1%"
- compound: "O=C(CCc1ccccc1)NC1CCCN(S(=O)(=O)c2ccc(N3CCOCC3)cc2)C1 (stereo not shown)"
  target.under.test: "Human P2X4 receptor (P2X4R) (Homo sapiens)"
  value.observed: "69.1%"
- compound: "O=C(NCCc1ccccc1)C1CCCN(S(=O)(=O)c2ccc(N3CCOCC3)cc2)C1 (stereo not shown)"
  target.under.test: "Human P2X4 receptor (P2X4R) (Homo sapiens)"
  value.observed: "68.1%"
- compound: "CS(=O)(=O)c1ccc(N2CCCC(NC(=O)CCc3ccccc3)C2)cc1 (stereo not shown)"
  target.under.test: "Human P2X4 receptor (P2X4R) (Homo sapiens)"
  value.observed: "71.9%"
- compound: "O=S(=O)(c1ccccc1)C1CN(S(=O)(=O)c2ccc(N3CCCCC3)cc2)C1"
  target.under.test: "Human P2X4 receptor (P2X4R) (Homo sapiens)"
  value.observed: "69.5%"
- compound: "CC(C)(C)OC(=O)N1CCC(C2CCN(c3ccc(S(=O)(=O)N4CCCC(NC(=O)CCc5ccccc5)C4)cc3)CC2)CC1 (stereo not shown)"
  target.under.test: "Human P2X4 receptor (P2X4R) (Homo sapiens)"
  value.observed: "39.9%"
- compound: "CC1CCN(c2ccc(S(=O)(=O)N3CCCC(NC(=O)CCc4ccccc4)C3)cc2)CC1 (stereo not shown)"
  target.under.test: "Human P2X4 receptor (P2X4R) (Homo sapiens)"
  value.observed: "62.9%"
- compound: "O=C(CCc1ccccc1)N1CCN(S(=O)(=O)c2ccc(NC3CCCCC3)cc2)CC1"
  target.under.test: "Human P2X4 receptor (P2X4R) (Homo sapiens)"
  value.observed: "83.9%"
- compound: "O=C(CCc1ccccc1)NC1CCCN(S(=O)(=O)c2ccc(-n3cc(Br)cn3)cc2)C1 (stereo not shown)"
  target.under.test: "Human P2X4 receptor (P2X4R) (Homo sapiens)"
  value.observed: "84.5%"
- compound: "O=C(CCc1ccccc1)NC1CCCN(c2ccc(S(=O)(=O)NC3CCCCC3)cc2)C1 (stereo not shown)"
  target.under.test: "Human P2X4 receptor (P2X4R) (Homo sapiens)"
  value.observed: "71.3%"
- compound: "O=C(NCCc1ccccc1)C1CCN(S(=O)(=O)c2ccc(N3CCCCC3)cc2)CC1"
  target.under.test: "Human P2X4 receptor (P2X4R) (Homo sapiens)"
  value.observed: "50.6%"
- compound: "O=C(NCCc1ccccc1)C1CCN(S(=O)(=O)c2ccc(N3CCOCC3)cc2)CC1"
  target.under.test: "Human P2X4 receptor (P2X4R) (Homo sapiens)"
  value.observed: "70.7%"
- compound: "CC(C)OC1CCN(c2ccc(S(=O)(=O)N3CCCC(NC(=O)CCc4ccccc4)C3)cc2)CC1 (stereo not shown)"
  target.under.test: "Human P2X4 receptor (P2X4R) (Homo sapiens)"
  value.observed: "68.2%"
- compound: "O=C(CCc1ccccc1)NC1CCCN(S(=O)(=O)Cc2ccc(Br)cc2)C1 (stereo not shown)"
  target.under.test: "Human P2X4 receptor (P2X4R) (Homo sapiens)"
  value.observed: "50.9%"
- compound: "CC(C)N(C(C)C)S(=O)(=O)c1ccc(N2CCCC(NC(=O)CCc3ccccc3)C2)cc1 (stereo not shown)"
  target.under.test: "Human P2X4 receptor (P2X4R) (Homo sapiens)"
  value.observed: "35.3%"
- compound: "O=C(CCc1ccccc1)NC1CCCN(S(=O)(=O)c2ccc(N3CCCC3)cc2)C1 (stereo not shown)"
  target.under.test: "Human P2X4 receptor (P2X4R) (Homo sapiens)"
  value.observed: "88.8%"
- compound: "O=C1CCC(N2Cc3c(NC(=O)CCc4ccccc4)cccc3C2=O)C(=O)N1 (stereo not shown)"
  target.under.test: "Human P2X4 receptor (P2X4R) (Homo sapiens)"
  value.observed: "60.7%"
- compound: "O=C(CCc1ccccc1)N1CCN(S(=O)(=O)c2ccc(F)cc2)CC1"
  target.under.test: "Human P2X4 receptor (P2X4R) (Homo sapiens)"
  value.observed: "76.8%"
- compound: "O=C(CCc1ccccc1)NC1CCCN(c2ccc(S(=O)(=O)N3CCCC3)cc2)C1 (stereo not shown)"
  target.under.test: "Human P2X4 receptor (P2X4R) (Homo sapiens)"
  value.observed: "37.7%"
